Protocol text: Aqueous solubility
Attribute measured: solubility
Answer as a quantity: numeral, then unit.

**Query** Complete the entry with solubility for `COc1cc2ncnc(Nc3cc(NC(=O)c4ccnc(N5CCOCC5)c4)ccc3C)c2cc1OCCN(C(C)C)C(C)C`
**Result** 240 µM

###

Protocol text: Volume of distribution at steady state after i.v. dosing at 1 mg/kg
Type: ADME, organism-based
Parameters: dose 1 mg/kg, route intravenous
Experimental setup: rat, in vivo, iv, read-out: Distribution
Attribute measured: Vd

**Query** Complete the entry with Vd for `CSc1nccc(Nc2cc(NC(=O)c3cc(F)cc(N4CCOCC4)c3)ccc2C)n1`
**Result** 0.8 L/kg
